experiment: basal S. cerevisiae growth modulation, no modifier, primary screen, OD600, strain BY4716, 24 h, basal condition (AID 1173); conditions: OD600, 24 h, higher = more signal, called active from +8 up or from −8 down

[
  {
    "Compound": "O=C(CS)NCCCCCNC(=O)[C@H]1C[C@H]2C(=O)N3CCC[C@H]3C(=O)N2[C@H]1c1ccc(O)cc1",
    "z-score": -1.04
  },
  {
    "Compound": "COCCOC(=O)N1C(=O)[C@@]2(c3cc(C#CCC(C(=O)OC)C(=O)OC)ccc31)[C@H](C(=O)N1CCN(c3ncccn3)CC1)[C@H]1C(=O)O[C@H](c3ccccc3)[C@H](c3ccccc3)N1[C@@H]2c1ccc(O)cc1",
    "z-score": -0.746
  },
  {
    "Compound": "[N-]=[N+]=NCc1ccccc1C[C@@]1(C(=O)O)N=C(c2ccc(OCCCO)cc2)O[C@@H]1c1ccccc1N=[N+]=[N-]",
    "z-score": -1
  },
  {
    "Compound": "CCCC[C@@H]1C[C@H]1[C@@H](NC(=O)c1cccs1)c1ccc(Cl)cc1",
    "z-score": 0.831
  },
  {
    "Compound": "C=CCC1=C[C@H]2[C@H]([C@@H]3C=C[C@]2(CC=C)C(=O)[C@]32CO2)[C@@]2(CO2)C1=O",
    "z-score": -15.3
  },
  {
    "Compound": "CN(C)CCCC[C@@H]1NC(=O)[C@@H]2C[C@H](C(=O)O)[C@H](c3ccc(O)cc3)N2C1=O",
    "z-score": -0.976
  },
  {
    "Compound": "O=C1OCC=C[C@H]2OC34C=CCN(Cc5ccccc5)C(=O)[C@H]3N(CCCCCO)C(=O)[C@@H]4[C@@H]12 (some centres not stated)",
    "z-score": -0.693
  }
]

====

tested on: Plasmodium falciparum Sir2 (PF13_0152, Sir2A); assay: pfSir2 binders on small-molecule microarrays, primary screen, biochemical, small-molecule microarray, 635 nm fluorescence (AID 1098); settings: small-molecule microarray binding, fluorescence 635 nm; higher = more signal;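 further: score merges spot fluorescence intensity with its signal-to-noise ratio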
Parameter Measured: composite z-score

[
  {
    "Molecule": "CO[C@H]1O[C@H](CO)[C@@H](OC(=O)Nc2ccc(Oc3ccccc3)cc2)[C@H](OC(=O)Nc2ccccc2-c2ccccc2)[C@H]1OC(=O)Nc1ccccc1-c1ccccc1",
    "Reported": 1.35
  },
  {
    "Molecule": "C=CCN(C(=O)C1N(c2ccc(CCO)cc2)C(=O)C2C(C(=O)O)C3C=CC21O3)C(C)(C)C (stereo not given)",
    "Reported": 1.86
  },
  {
    "Molecule": "Cc1ccc(N2C(=O)c3ccccc3[C@@H](C(=O)NCC(F)(F)F)[C@@H]2c2ccc(CO)cc2)nc1",
    "Reported": 1.72
  },
  {
    "Molecule": "COC(=O)C1=C(C)N(Cc2ccccc2)c2c(C(=O)OC)c(C(=O)OC)c(C(=O)OC)c(=O)n2[C@@H]1c1ccccc1",
    "Reported": 0.119
  },
  {
    "Molecule": "[N-]=[N+]=NCc1ccccc1C[C@@]1(C(=O)O)N=C(c2ccc(OCCCO)cc2)O[C@@H]1c1ccccc1N=[N+]=[N-]",
    "Reported": 1.44
  },
  {
    "Molecule": "COC(=O)c1c(CC[C@@H](CO)NC(=O)N[C@H](Cn2cc(-c3cncn3C)nn2)C(C)C)oc(C(C)=O)c1C(=O)OC",
    "Reported": 0.844
  },
  {
    "Molecule": "O=[N+]([O-])c1ccc(C[n+]2ccc3ccc(O)cc3c2)o1",
    "Reported": 0.595
  },
  {
    "Molecule": "CCC(=O)[C@]12O[C@@]3([C@@H]4C(=O)OCC[C@@H]41)N(Cc1ccccc1)C(C)=C(C(=O)OC)[C@@H](c1ccccc1)N3C2=O",
    "Reported": 0.401
  },
  {
    "Molecule": "COc1cc([C@@H]2N[C@H](C(=O)O)Cc3c2[nH]c2ccccc32)cc(OC)c1OC",
    "Reported": 0.175
  },
  {
    "Molecule": "Cc1cc(C)c(C(O)C2C=CC3C(=O)N(C)C(=O)C3N2N2CCCCC2)c(C)c1 (stereo not given)",
    "Reported": 1.38
  },
  {
    "Molecule": "C=CC[C@@]1(C(=O)NCC(O)CO)N=C(c2ccc(OCCCO)cc2)O[C@@H]1c1ccccc1CN=[N+]=[N-] (stereo not given in full)",
    "Reported": 1.52
  },
  {
    "Molecule": "CCC(=O)[C@]12O[C@@]3([C@@H]4C(=O)OCC[C@@H]41)N(CC)C(C)=C(C(=O)OC)[C@@H](c1ccccc1)N3C2=O",
    "Reported": -0.155
  },
  {
    "Molecule": "CC(C)[Si](OCC[C@H]1O[C@]2(C(=O)N(Cc3ccccc3)c3ccccc32)[C@@H](C)[C@@H]1[Si](C)(C)O)(C(C)C)C(C)C",
    "Reported": 0.54
  },
  {
    "Molecule": "Cc1ccc(S[C@]2(C(=O)NC(C)C)CC(=O)N(Cc3cc(C(F)(F)F)cc(C(F)(F)F)c3)[C@@H]2c2ccc(CO)cc2I)cc1",
    "Reported": -0.602
  },
  {
    "Molecule": "COCC(=C=CC[C@H](O)c1ccc(OCCO)cc1)C[C@H](O)c1ccccn1",
    "Reported": 0.338
  }
]

====

test: inhibitors of hydroxyurea-induced Chk1 phosphorylation, primary screen, imaging, HeLa, phospho-Chk1 nuclear intensity (AID 1187); details: hydroxyurea-induced phospho-Chk1 immunofluorescence imaging, higher = more signal; further: test concentration not given here
# z-score >= -0.4 gives label 1, anything below gives label 0

[
  {
    "Compound": "COCCOC(=O)N1C(=O)[C@@]2(c3cc(C#CC4=CCCCC4)ccc31)[C@H](C(=O)NC[C@H](O)c1ccccc1)[C@H]1C(=O)O[C@H](c3ccccc3)[C@H](c3ccccc3)N1[C@@H]2c1ccc(OCCO)cc1",
    "Class Label": "label 1"
  },
  {
    "Compound": "Cc1cc(C)c(C(O)C2C=CC3C(=O)N(C)C(=O)C3N2N2CCCCC2)c(C)c1 (configuration not stated)",
    "Class Label": "label 1"
  },
  {
    "Compound": "O=C(NCc1ccccc1)[C@@]1(CCS(=O)(=O)c2ccccc2)COC(c2ccc(OCCCO)cc2)=N1",
    "Class Label": "label 0"
  },
  {
    "Compound": "CC(C)[C@H]1NC(=O)[C@@]23C(=O)N[C@@H](Cc4ccccc4)C2[C@H](C)[C@@]2(C)O[C@H]2C3/C=C/C/C=C\\CNC(=O)[C@H](C)NC1=O (some centres not stated)",
    "Class Label": "label 1"
  },
  {
    "Compound": "O=C1O[C@@H](c2ccccc2)[C@@H](c2ccccc2)N2[C@@H](c3ccc(O)cc3)[C@]3(C(=O)Nc4ccc(C#CC5(O)CCCCCC5)cc43)[C@@H](C(=O)Nc3nc4ccccc4s3)[C@H]12",
    "Class Label": "label 1"
  },
  {
    "Compound": "CC1=C([C@H](O)CCc2ccccc2)[C@H](CO)[C@@H]2C(=O)N(Cc3ccccc3)C(=O)[C@@H]2C1",
    "Class Label": "label 0"
  },
  {
    "Compound": "CC(C)C[C@@H]1NC(=O)[C@H]2C[C@@H](C(=O)NCCCCCC[N+](C)(C)C)[C@@H](c3ccc(O)cc3)N2C1=O",
    "Class Label": "label 1"
  },
  {
    "Compound": "COCCOC(=O)N1C(=O)[C@@]2(c3cc(C#CC4=CCCCC4)ccc31)[C@H](C(=O)NC[C@H](O)c1ccccc1)[C@H]1C(=O)O[C@H](c3ccccc3)[C@H](c3ccccc3)N1[C@@H]2c1ccccc1OCCO",
    "Class Label": "label 1"
  },
  {
    "Compound": "O=C1O[C@H](c2ccccc2)[C@H](c2ccccc2)N2[C@H]1[C@@H](C(=O)NC[C@H](O)c1ccccc1)[C@]1(C(=O)Nc3ccc(C#CC4=CCCCC4)cc31)[C@H]2c1ccc(OCCO)cc1",
    "Class Label": "label 1"
  },
  {
    "Compound": "CC1CC/C=C\\[C@H]2OC34C=CCN(Cn5nnc6ccccc65)C(=O)[C@H]3N(C(C)CO)C(=O)[C@@H]4C2C(=O)O1 (some centres not stated)",
    "Class Label": "label 1"
  },
  {
    "Compound": "O=C1O[C@@H](c2ccccc2)[C@@H](c2ccccc2)N2[C@@H](c3ccc(OCCO)cc3)[C@]3(C(=O)Nc4ccc(C#CCCO)cc43)[C@@H](C(=O)N3CCN(c4ncccn4)CC3)[C@H]12",
    "Class Label": "label 1"
  },
  {
    "Compound": "COC(=O)C[C@H]1O[C@]2(C(=O)N(Cc3ccccc3)c3ccc(I)cc32)[C@@H](C)[C@@H]1[Si](C)(C)c1ccc(OC)cc1",
    "Class Label": "label 0"
  }
]
